Experiment: CellTiter-Glo 2.0 cytotoxicity, normal fibroblasts
Assay type: cell-based, human
Conditions: human, human gingival fibroblasts (HGF), read-out: cell viability

MOLECULE: COc1cc(OC)c(C2C=C(Nc3ccc(I)cc3)C(=O)N2c2ccc(I)cc2)cc1OC (stereo not shown)
UNIT_INFO: %
viability at 24 h, 50 µM: 64

----------
System: HOP-92
Assay: NCI-60 single-dose screen
Assay type: cell-based
Settings: Homo sapiens; HOP-92, 10^–5 M; read-out: GI (%)

MOLECULE: O=C1C(Nc2ccc(I)cc2)=CC(c2ccc(O)c(O)c2)N1c1ccc(I)cc1 (stereo not drawn)
inhibition at 10 µM / %: 66

MOLECULE: COc1cc(OC)c(C2C=C(Nc3ccc(I)cc3)C(=O)N2c2ccc(I)cc2)cc1OC (stereo not drawn)
inhibition at 10 µM / %: 0

MOLECULE: COc1ccc(C2C=C(Nc3ccc(I)cc3)C(=O)N2c2ccc(I)cc2)cc1OC (stereo not drawn)
inhibition at 10 µM / %: 0

MOLECULE: O=C1C(Nc2ccc(I)cc2)=CC(c2cc(C(F)(F)F)cc(C(F)(F)F)c2)N1c1ccc(I)cc1 (stereo not drawn)
inhibition at 10 µM / %: 19

MOLECULE: N#Cc1ccc(C2C=C(Nc3ccc(I)cc3)C(=O)N2c2ccc(I)cc2)cc1 (stereo not drawn)
inhibition at 10 µM / %: 75

MOLECULE: O=C1C(Nc2ccc(I)cc2)=CC(c2ccc(Br)cc2)N1c1ccc(I)cc1 (stereo not drawn)
inhibition at 10 µM / %: 0

MOLECULE: O=C1C(Nc2ccc(I)cc2)=CC(c2ccco2)N1c1ccc(I)cc1 (stereo not drawn)
inhibition at 10 µM / %: 29

MOLECULE: O=C1C(Nc2ccc(I)cc2)=CC(c2ccc3c(c2)OCO3)N1c1ccc(I)cc1 (stereo not drawn)
inhibition at 10 µM / %: 4

MOLECULE: COc1ccccc1C1C=C(Nc2ccc(I)cc2)C(=O)N1c1ccc(I)cc1 (stereo not drawn)
inhibition at 10 µM / %: 20

----------
Test system: SR
Assay: NCI-60 single-dose screen
Format: cell-based
Settings: Homo sapiens, 10^–5 M, read-out: GI (%)
Returns one of criterion met or criterion not met; criterion met when inhibition at 10 µM is >= 50%.

COMPOUND: O=C1C(Nc2ccc(I)cc2)=CC(c2ccccc2)N1c1ccc(I)cc1 (stereo not drawn)
CAT: criterion not met
//
COMPOUND: COc1cc(OC)c(C2C=C(Nc3ccc(I)cc3)C(=O)N2c2ccc(I)cc2)cc1OC (stereo not drawn)
CAT: criterion not met
//
COMPOUND: O=C1C(Nc2ccc(I)cc2)=CC(c2ccco2)N1c1ccc(I)cc1 (stereo not drawn)
CAT: criterion met
//
COMPOUND: COc1ccccc1C1C=C(Nc2ccc(I)cc2)C(=O)N1c1ccc(I)cc1 (stereo not drawn)
CAT: criterion not met
//
COMPOUND: N#Cc1ccc(C2C=C(Nc3ccc(I)cc3)C(=O)N2c2ccc(I)cc2)cc1 (stereo not drawn)
CAT: criterion met
//
COMPOUND: O=C1C(Nc2ccc(I)cc2)=CC(c2ccc(C(F)(F)F)cc2)N1c1ccc(I)cc1 (stereo not drawn)
CAT: criterion met
//
COMPOUND: O=C1C(Nc2ccc(I)cc2)=CC(c2ccc(Cl)cc2)N1c1ccc(I)cc1 (stereo not drawn)
CAT: criterion not met
//
COMPOUND: O=C1C(Nc2ccc(I)cc2)=CC(c2cc(C(F)(F)F)cc(C(F)(F)F)c2)N1c1ccc(I)cc1 (stereo not drawn)
CAT: criterion not met
//
COMPOUND: O=C1C(Nc2ccc(I)cc2)=CC(c2ccc(O)c(O)c2)N1c1ccc(I)cc1 (stereo not drawn)
CAT: criterion met

----------
System: ACHN
Test: NCI-60 single-dose screen
Format: cell-based
Conditions: Homo sapiens, 10^–5 M, read-out: GI (%)
Listing: inhibition at 10 µM of selected molecules

MOLECULE: O=C1C(Nc2ccc(I)cc2)=CC(c2ccco2)N1c1ccc(I)cc1 (stereo not drawn)
inhibition at 10 µM [%]: 9

MOLECULE: COc1cc(OC)c(C2C=C(Nc3ccc(I)cc3)C(=O)N2c2ccc(I)cc2)cc1OC (stereo not drawn)
inhibition at 10 µM [%]: 0

MOLECULE: O=C1C(Nc2ccc(I)cc2)=CC(c2ccc(Br)cc2)N1c1ccc(I)cc1 (stereo not drawn)
inhibition at 10 µM [%]: 15

MOLECULE: O=C1C(Nc2ccc(I)cc2)=CC(c2ccccc2)N1c1ccc(I)cc1 (stereo not drawn)
inhibition at 10 µM [%]: 13

MOLECULE: O=C1C(Nc2ccc(I)cc2)=CC(c2ccc(O)c(O)c2)N1c1ccc(I)cc1 (stereo not drawn)
inhibition at 10 µM [%]: 61

MOLECULE: O=C1C(Nc2ccc(I)cc2)=CC(c2cc(C(F)(F)F)cc(C(F)(F)F)c2)N1c1ccc(I)cc1 (stereo not drawn)
inhibition at 10 µM [%]: 49

MOLECULE: COc1ccc(C2C=C(Nc3ccc(I)cc3)C(=O)N2c2ccc(I)cc2)cc1OC (stereo not drawn)
inhibition at 10 µM [%]: 0

MOLECULE: O=C1C(Nc2ccc(I)cc2)=CC(c2ccc(F)cc2)N1c1ccc(I)cc1 (stereo not drawn)
inhibition at 10 µM [%]: 35

MOLECULE: O=C1C(Nc2ccc(I)cc2)=CC(c2ccc(C(F)(F)F)cc2)N1c1ccc(I)cc1 (stereo not drawn)
inhibition at 10 µM [%]: 100

----------
Test system: NCI-H460
Test: NCI-60 single-dose screen
Assay type: cell-based
Settings: Homo sapiens; NCI-H460, 10^–5 M; read-out: GI (%)

COMPOUND: O=C1C(Nc2ccc(I)cc2)=CC(c2cc(C(F)(F)F)cc(C(F)(F)F)c2)N1c1ccc(I)cc1 (centres unmarked) [3f]
inhibition at 10 µM (%): 35

COMPOUND: O=C1C(Nc2ccc(I)cc2)=CC(c2ccc(Br)cc2)N1c1ccc(I)cc1 (centres unmarked) [3d]
inhibition at 10 µM (%): 0

COMPOUND: O=C1C(Nc2ccc(I)cc2)=CC(c2ccc(O)c(O)c2)N1c1ccc(I)cc1 (centres unmarked) [3h]
inhibition at 10 µM (%): 98

COMPOUND: COc1cc(OC)c(C2C=C(Nc3ccc(I)cc3)C(=O)N2c2ccc(I)cc2)cc1OC (centres unmarked) [3k]
inhibition at 10 µM (%): 0

COMPOUND: O=C1C(Nc2ccc(I)cc2)=CC(c2ccccc2)N1c1ccc(I)cc1 (centres unmarked) [3a]
inhibition at 10 µM (%): 1

----------
System: SK-MEL-2
Experiment: NCI-60 single-dose screen
Type: cell-based
Details: Homo sapiens; SK-MEL-2, 10^–5 M; read-out: GI (%)
Parameter: inhibition at 10 µM. Scope: all listed entries.

COMPOUND: O=C1C(Nc2ccc(I)cc2)=CC(c2ccc(F)cc2)N1c1ccc(I)cc1 (centres unmarked)
UNIT_INFO: %
inhibition at 10 µM: 31
//
COMPOUND: COc1ccccc1C1C=C(Nc2ccc(I)cc2)C(=O)N1c1ccc(I)cc1 (centres unmarked)
UNIT_INFO: %
inhibition at 10 µM: 44
//
COMPOUND: N#Cc1ccc(C2C=C(Nc3ccc(I)cc3)C(=O)N2c2ccc(I)cc2)cc1 (centres unmarked)
UNIT_INFO: %
inhibition at 10 µM: 100
//
COMPOUND: O=C1C(Nc2ccc(I)cc2)=CC(c2ccccc2)N1c1ccc(I)cc1 (centres unmarked)
UNIT_INFO: %
inhibition at 10 µM: 26
//
COMPOUND: O=C1C(Nc2ccc(I)cc2)=CC(c2ccc(O)cc2)N1c1ccc(I)cc1 (centres unmarked)
UNIT_INFO: %
inhibition at 10 µM: 56
//
COMPOUND: COc1cc(OC)c(C2C=C(Nc3ccc(I)cc3)C(=O)N2c2ccc(I)cc2)cc1OC (centres unmarked)
UNIT_INFO: %
inhibition at 10 µM: 0
//
COMPOUND: O=C1C(Nc2ccc(I)cc2)=CC(c2ccco2)N1c1ccc(I)cc1 (centres unmarked)
UNIT_INFO: %
inhibition at 10 µM: 100
//
COMPOUND: O=C1C(Nc2ccc(I)cc2)=CC(c2cc(C(F)(F)F)cc(C(F)(F)F)c2)N1c1ccc(I)cc1 (centres unmarked)
UNIT_INFO: %
inhibition at 10 µM: 35
//
COMPOUND: O=C1C(Nc2ccc(I)cc2)=CC(c2ccc(O)c(O)c2)N1c1ccc(I)cc1 (centres unmarked)
UNIT_INFO: %
inhibition at 10 µM: 100
//
COMPOUND: O=C1C(Nc2ccc(I)cc2)=CC(c2ccc(Cl)cc2)N1c1ccc(I)cc1 (centres unmarked)
UNIT_INFO: %
inhibition at 10 µM: 43
//
COMPOUND: O=C1C(Nc2ccc(I)cc2)=CC(c2ccc(Br)cc2)N1c1ccc(I)cc1 (centres unmarked)
UNIT_INFO: %
inhibition at 10 µM: 16
//
COMPOUND: COc1ccc(C2C=C(Nc3ccc(I)cc3)C(=O)N2c2ccc(I)cc2)cc1OC (centres unmarked)
UNIT_INFO: %
inhibition at 10 µM: 0
//
COMPOUND: O=C1C(Nc2ccc(I)cc2)=CC(c2ccc3c(c2)OCO3)N1c1ccc(I)cc1 (centres unmarked)
UNIT_INFO: %
inhibition at 10 µM: 56
//
COMPOUND: O=C1C(Nc2ccc(I)cc2)=CC(c2ccc(C(F)(F)F)cc2)N1c1ccc(I)cc1 (centres unmarked)
UNIT_INFO: %
inhibition at 10 µM: 100

The reported measurements were obtained from paper PMC12736255.
